These measurements were taken from the supplement of paper PMC10567573.

Property: protein stability index; scope: individual variants
B1: ZNF232 (parent)
chain: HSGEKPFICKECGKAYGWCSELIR

# Variants of: B1
# TEST: protein stability index of a GFP-peptide fusion (GPS, HEK-293T) (PSI 1-6); higher = more stable;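 also: lentivirally expressed fusions sorted by FACS into six bins by GFP to DsRed ratio, PSI derived from sequencing read proportions per bin multiplied by bin number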
# RUN PARAMETERS: c terminus: a fixed tail appended
VALUE TYPE: protein stability index

# MUTATIONS, NUMERIC READOUT
measured = [
    ("F7L", 2.05),
    ("P6M", 2.04),
    ("K14Y", 1.98),
    ("E11Y", 1.98),
    ("S20Q", 1.98),
    ("G3V", 2),
    ("I23F", 1.98),
    ("F7T", 2),
    ("P6S", 1.98),
    ("E11V", 2.04),
    ("A15T", 2.05),
    ("I8G", 2.01),
    ("G3Q", 1.97),
    ("K14D", 2.01),
    ("G17F", 1.97),
    ("K14M", 1.96),
    ("I23M", 1.97),
    ("K5W", 1.96),
]
